As shown below, each of these molecules has a reported normalized growth value.
Test: chemical genetic growth profiling, strain panel (AID 1159580);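 note: tested at 20 µM; growth read once vehicle control cultures reached saturation at 30 °C; 1 = growth at the plate median or of vehicle wells; lower values mean less growth of the strain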
Conditions: S. cerevisiae deletion strains, growth OD, locus YJL128C, strain PBS2, hits give low values
Screen size: about 5,500 compounds; about 2,000 (36%) were called active. Not shown: some 18% with an inconclusive outcome. Some of the results follow.
quantity.kind: normalized growth

                             molecule_smiles  numeric_readout
 0  CCOC(=O)NC(=S)Nc1ccc(C(C)(C)C)cc1NC(=S)NC(=O)OCC            0.944
 1   CC(C)(C)NC(=S)N/N=C\c1cc(Br)c(O)c(Br)c1            0.976
 2    O=C1/C(=C/c2c[nH]c3ccccc23)CSc2ccccc21            0.944
 3  O=C(Nc1cc2ccccc2s1)N1CCN(Cc2c(F)cccc2Cl)CC1            0.965
 4  FC(F)(F)Oc1ccc(OCc2n[nH]c(=S)n2-c2ccc(Cl)cc2)cc1            0.956
 5  CC(C)/C(=N/OC(=O)c1ccc([N+](=O)[O-])cc1)c1ccccc1            0.943
 6  O=C(OCc1ccccc1Br)c1cc([N+](=O)[O-])cc([N+](=O)[O-])c1            0.944
 7         O=C1Nc2ccccc2/C1=C\c1cccc2ccccc12            0.914
 8             CN(C)/C=C1\CSc2ccc(Cl)cc2C1=O             1.01
 9       Cc1cc(-c2onc(C)c2C(=O)Sc2ccccc2)no1            0.888
10  O=C(NNc1cc(C(F)(F)F)cc(C(F)(F)F)c1)c1cnc2n(c1=O)CCS2             1.02
11  N/C(=N/OC(=O)c1cnn(-c2ccc([N+](=O)[O-])cc2)c1C(F)(F)F)c1ccc(Cl)cc1             0.98

* * *

Assay: chemical genetic growth profiling, strain panel (AID 1159580);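 note: tested at 20 µM; growth read once vehicle control cultures reached saturation at 30 °C; 1 = growth at the plate median or of vehicle wells; lower values mean less growth of the strain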
Details: S. cerevisiae deletion strains, growth OD, locus YDR477W, strain SNF1, hits give low values
Screen size: about 5,500 compounds; about 2,000 (36%) were called active. Another 18% or so got no clear call; they are omitted. This is one part of the list.
quantity.kind: normalized growth

In [3]: df
Out[3]:
                            molecule_smiles  numeric_readout
0  N#Cc1nccnc1N1CCN(C(=O)Nc2cc(Cl)cc(Cl)c2)CC1            0.923
1               ONC(=Nc1ccccc1Cl)c1ccccc1Cl            0.859
2  O=c1[nH][nH]c(=O)n1CCCc1cc2cccc3ccc4cccc1c4c32            0.979
3  O=C(O/N=C1/CCCc2[nH]c3ccccc3c21)C1CCCCC1            0.905
4   CC(C)(C)NC(=S)N/N=C\c1cc(Br)c(O)c(Br)c1            0.917
5  O=C(OCc1ccccc1Br)c1cc([N+](=O)[O-])cc([N+](=O)[O-])c1            0.841

* * *

Assay: chemical genetic growth profiling, strain panel (AID 1159580);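 note: tested at 20 µM; growth read once vehicle control cultures reached saturation at 30 °C; 1 = growth at the plate median or of vehicle wells; lower values mean less growth of the strain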
Settings: S. cerevisiae deletion strains, growth OD, locus YOR316C, strain cot1, hits give low values
Hit rate of the full screen: of about 5,500 compounds, about 2,000 (36%) were called active. Roughly 18% stayed inconclusive and do not appear here. Some of the results follow.
quantity.kind: normalized growth

compound	numeric.readout
C/C=C(\C)C(=O)O[C@@H]1c2c(ccc3ccc(=O)oc23)OC(C)(C)[C@@H]1OC(C)=O	0.999
C[C@H]1[C@H](C)CC[C@]2(C(=O)O)CC[C@]3(C)C(=CCC4[C@@]5(C)C[C@@H](O)[C@H](O)[C@@](C)(CO)C5[C@H](O)C[C@]43C)[C@H]12 (some centres undefined)	0.962
C[N+]1(C)C[C@H](O)[C@H](C(=O)[O-])C1	0.995
C/C=C(/C)C(=O)O[C@@H]1Cc2c(ccc3ccc(=O)oc23)OC1(C)C	0.987
